- Test system: T-47D breast
- Protocol notes: NCI tumour cell line growth inhibition, 48 h
Experimental endpoint: TGI

Compound: CC(NCCC(=O)N(CCC(=O)N(CCC(=O)N(CCC(=O)N(CCC(=O)N(CCC(=O)N(CCC(=O)N(CCC(=O)N(CCC(=O)N(CCC(=O)O)[C@H](C)c1ccccc1)[C@H](C)c1ccccc1)[C@H](C)c1ccccc1)[C@H](C)c1ccccc1)[C@H](C)c1ccccc1)[C@H](C)c1ccccc1)[C@H](C)c1ccccc1)[C@H](C)c1ccccc1)[C@H](C)c1ccccc1)c1ccccc1 (stereo partly drawn)
TGI: > 75 µM

Compound: CNC(=O)CC1NC(=O)c2csc(n2)-c2ccc(-c3nc(C4=NC(C(=O)N5CCCC5C(N)=O)CO4)cs3)nc2-c2csc(n2)-c2csc(n2)C(C(C)C)NC(=O)CNC(=O)c2csc(n2)C(C(C)C)NC(=O)c2nc1sc2C (stereo not drawn)
TGI: > 25 µM

Compound: C/C(=N\NC(=S)N1CCN(C)CC1)c1nc2ncccc2[nH]1
TGI: > 100 µM

Compound: O=S(=O)(c1cccc2c(Cl)cccc12)N1CCCNCC1
TGI: 29.4 µM

Compound: O=C(c1ccccc1)C(Br)C(Br)c1cccc([N+](=O)[O-])c1 (stereo not drawn)
TGI: 5.65 µM

Requested field: TGI. Item: C=CC[C@@]1([C@H](C=C)COCc2ccc(OC)cc2)CC[C@]2(C)OC(C)(C)[C@@H](c3ccccc3)N2C1=S
> 100 µM

What TGI value was documented for this compound, CCOC(=O)/C(=C\c1ccc(C#N)cc1)C(C)=O ?
68.2 µM

Reported TGI for C=C1C(=O)O[C@H]2[C@H]1CCC(/C=N/c1ncc(Br)cc1N)=C\CC[C@@]1(C)O[C@@H]21 : what is it?
4.9 µM

What value of TGI has been recorded for this entry: Cc1cc2[nH]c(=O)c3c4ccccc4cn3c2cc1C
50 µM

====

- Test system: A549 NSCLC
- Protocol notes: NCI tumour cell line growth inhibition, 48 h
Some molecules, each annotated with its measured TGI.

Molecule: C[n+]1ccc(Nc2ccc(NC(=O)c3ccc(Nc4cc[n+](C)c5ccc([N+](=O)[O-])cc45)cc3[N+](=O)[O-])cc2)cc1
TGI: > 100 µM

Molecule: O=[N+]([O-])c1cc2c(c([N+](=O)[O-])c1)NCc1ccccc1O2
TGI: > 100 µM

Molecule: C[C@]12C[C@@H](c3ccccc3)Nc3ccccc3N1C(c1ccccc1)=NO2
TGI: > 100 µM

Field request: TGI | item: Cc1ccc2c(c1)C(C)Cc1c(Cl)ncnc1N2C (stereo unspecified)
> 100 µM

// query TGI value for entry CC(C)(C)c1ccc(-n2c3nc(=O)n(-c4ccccc4CO)c(=O)c-3cc3ccccc32)cc1
> 100 µM

Give the measured TGI of C/C(=N\NC(=O)c1ccncc1)c1ccccc1F .
> 10 µM

====

Form field: GI50 (one value per entry).
- Test system: LOX IMVI melanoma
- Protocol notes: NCI tumour cell line growth inhibition, 48 h

Compound: FC(F)(F)c1ccc(C#Cc2ccccc2C#Cc2ccccc2)cc1
Recorded value: 26.2 µM
--
Compound: CCN1C(=O)N(c2ccccc2)C2NC(=S)N(/N=C/C=C/c3ccccc3)C21 (stereo not given)
Recorded value: 0.647 µM
--
Compound: O=S(=O)(c1cccc2c(Cl)cccc12)N1CCCNCC1
Recorded value: 13.4 µM

Quick one: GI50 for CNC(=O)CC1NC(=O)c2csc(n2)-c2ccc(-c3nc(C4=NC(C(=O)N5CCCC5C(N)=O)CO4)cs3)nc2-c2csc(n2)-c2csc(n2)C(C(C)C)NC(=O)CNC(=O)c2csc(n2)C(C(C)C)NC(=O)c2nc1sc2C (stereo not given) ?
> 25 µM

What measured GI50 goes with O=C(Nc1ccc2[nH]c(=S)sc2c1)Nc1ccccc1F ?
16.3 µM

====

- Test system: HOP-62 NSCLC
- Protocol notes: NCI tumour cell line growth inhibition, 48 h
Experimental endpoint: GI50

Solved cases (2 shown):
Compound: COc1ccccc1N1CCN(CCc2c[nH]c3cc4c(cc23)OCO4)CC1
Assayed target: HOP-62 NSCLC
Experimental endpoint: GI50
Recorded value: 28.6 µM
--
Compound: O=S(=O)(c1cccc2c(Cl)cccc12)N1CCCNCC1
Assayed target: HOP-62 NSCLC
Experimental endpoint: GI50
Recorded value: 11.2 µM

The record that follows has no GI50 shown yet.
Would you mind telling me what GI50 value was observed for CC1(C)OC(CP(c2ccccc2)c2ccccc2)C(CP(c2ccccc2)c2ccccc2)O1 (stereo not drawn) ?
0.56 µM

====

- Test system: DU-145 prostate
- Protocol notes: NCI tumour cell line growth inhibition, 48 h; in the data active = GI50 below about 0.43 µM; inactive = the rest
Form entry, call: pick from active, inactive

Compound: CCCCCCCCCCC(C(O)c1ccccc1)N1CCCCC1 (centres undefined)
Group label: inactive

Could you check what this test reported for COc1ccc(S(=O)(=O)Nc2cc(/C=C\c3cc(OC)c(OC)c(OC)c3)ccc2OC)cc1 ?
active

Lab log entry: CCN1C(=O)N(c2ccccc2)C2NC(=S)N(/N=C/C=C/c3ccccc3)C21 (centres undefined) — outcome as called in the assay?
inactive

# lookup: test call for COc1cc(/C=C/C(=O)c2c(C)nc3ccccc3c2/C=C/c2ccc(C)cc2)cc(OC)c1OC
inactive

Just curious, what result did CCC[CH2][Sn]([CH2]CCC)([CH2]CCC)[O]C(=O)c1ccc(Cl)cc1Cl get here?
active

Dear all, I need the recorded test outcome for Oc1[nH]c2c(Br)cccc2c1C1=Nc2ccccc2/C1=N/OCCN1CCCC1 , thank you.
inactive

====

- System: RPMI-8226 leukemia
- Protocol notes: NCI tumour cell line growth inhibition, 48 h
Experimental endpoint: log10(TGI) (log10 of the value in µM)
Heads up, the numbers here are log10 of TGI in µM units.

Guide cases for log10(TGI), answers given:
Molecule: O=P1(c2ccccc2)C(c2ccccc2)=CC=C1c1ccccc1
Recorded value: 1.29
//
Molecule: CCN(CC)CCn1c2ccccc2c(=O)c2c(O)ccc(O)c21
Recorded value: 1.93
//
Molecule: Cc1cc(NCc2cc(Nc3ccnc4cc(Cl)ccc34)ccc2F)nc(N2CCN(C)CC2)n1
Recorded value: 0.56
//
Molecule: COc1cccc(OCCCN)c1-c1cc(Nc2cnc(C#N)cn2)n[nH]1
Recorded value: 0.88
//
Molecule: COc1ccc(NC(=O)COCCOCCNC[C@@H]2C(=O)O[C@H]3[C@H]2CC/C(COC(=O)OC/C2=C/CC[C@@]4(C)O[C@H]4[C@H]4OC(=O)[C@@H](CN(C)C)[C@@H]4CC2)=C\CC[C@@]2(C)O[C@@H]32)c(O)c1C(N)=O
Recorded value: 0.62

Name the reported log10(TGI) value associated with the molecule C[C@]12CCC(=O)C(O)=C1CC[C@@H]1C2CC[C@]2(C)Nc3c(cnn3-c3ccccc3)CC12 (some centres not stated)
1.99

====

Listed here: items and their measured TGI.
- System: ACHN renal
- Protocol notes: NCI tumour cell line growth inhibition, 48 h

Compound: CN(C)CCCNc1c(C#N)[n+]([O-])c2cc(Cl)ccc2[n+]1[O-]
Experimental endpoint: TGI
Recorded value: 22.2 µM
//
Compound: CC1=C(C)C1[N+](=O)[O-]
Experimental endpoint: TGI
Recorded value: > 100 µM
//
Compound: O=C1C2C=CC(C2)C(c2ccc(O)cc2)N1O (stereo unspecified)
Experimental endpoint: TGI
Recorded value: > 100 µM

Need TGI, item CC1(C)OC(CP(c2ccccc2)c2ccccc2)C(CP(c2ccccc2)c2ccccc2)O1 (stereo unspecified)
> 100 µM

For the compound shown here, C=C(C)[C@@H]1CC[C@]2(C)[C@H](CC=C3[C@@H]4[C@@H](C)[C@H](C)CC[C@]4(C(N)=O)CC[C@]32C)[C@@]1(C)CCC#N , give the reported TGI.
> 100 µM

Sample Oc1ccc(Cc2nccc3cc(O)c(O)cc23)cc1O — what was its TGI?
> 100 µM

====

Catalogue of compounds with associated TGI
- Test system: CAKI-1 renal
- Protocol notes: NCI tumour cell line growth inhibition, 48 h

Solved cases below.
Compound: O=C(O)CCc1cccc2c1oc1c(CCC(=O)O)cccc12
Experimental endpoint: TGI
Recorded value: > 100 µM

Compound: COc1c(Br)cc(/C=C(\C#N)c2cccnc2)cc1Br
Experimental endpoint: TGI
Recorded value: > 100 µM

Compound: COc1cccc(OCCCN)c1-c1cc(Nc2cnc(C#N)cn2)n[nH]1
Experimental endpoint: TGI
Recorded value: 11.9 µM

Compound: O=C1CCCC(=O)N1CCc1c[nH]c2ccccc12
Experimental endpoint: TGI
Recorded value: > 100 µM

Compound: Oc1[nH]c2c(Br)cccc2c1C1=Nc2ccccc2/C1=N/OCCN1CCCC1
Experimental endpoint: TGI
Recorded value: 2.24 µM

# TGI lookup, item C#C[C@]1(O)CC[C@H]2[C@@H]3CCC4=C/C(=N/NC(=O)c5cccc6cc7ccccc7nc56)CC[C@@H]4[C@H]3CC[C@@]21CC
> 100 µM

Would you mind telling me what TGI value was observed for Nc1nc2n[nH]nc2c(=O)[nH]1 ?
> 100 µM

Report TGI for O=C1C2C(c3ccccc3)NC(c3ccccc3)C1C(c1ccccc1)NC2c1ccccc1 (stereo not drawn) please.
> 100 µM
